# Tested on: NCI-H23 lung
# assay_details: NCI-60 one-dose screen, 48 h (100 = growth as untreated, 0 = no growth, -100 = all killed)
# condition_parameters: 10 µM unless noted
# Protocol: Growth inhibition of the NCI-H23 human Non-Small Cell Lung tumor cell line is measured as a screen for anti-cancer activity. Cells are grown in 96 well plates and exposed to the test compound for 48 hours. Compounds are tested at a single concentration, which is 10^-5 M for most compounds. The reported endpoint is percent growth (GI% or GIPRCNT), where numbers from 0 - 100% represent growth inhibition, and numbers from -100% - 0 represent cell death. […]
About 83,000 compounds went through this panel and 20% of them were active in at least one assay; those are over-represented in the sample as a whole.
endpoint_name: growth (%)
Could you give me the number in %? Just the number is fine.

Example cases with answers are listed next.
- compound: "O=C(CCCCCCN1CC(=O)N2[C@@H](c3cccs3)c3[nH]c4ccccc4c3C[C@H]2C1=O)NO"
  growth / %: 94.1
- compound: "CSc1ccc(/C(=N/N=C(N)N)c2ccc(F)cc2)cc1"
  growth / %: -36.7
- compound: "C#Cc1nc(/C=C/C(=O)NO)cs1"
  growth / %: -86.7
- compound: "CCCCCCOC(=O)c1cc(-c2ccc(F)cc2)nc2ccccc12"
  growth / %: 90.3

Ask: Could you share which growth value was measured for `CC(=C(c1ccc(OCCN(C)C)cc1)c1ccc(OCCN(C)C)cc1)c1ccc(Cl)cc1` ?
Reply: 29.5

Ask: Could you share which growth value was measured for NC1C2CCC1CN(c1cnc(C(=O)Nc3cc(F)cc4cccnc34)cn1)C2 (centres undefined) ?
Reply: 75.1

Ask: Could you share which growth value was measured for `CCOC(=O)c1cccc(NC2=C(Cl)C(=O)c3nc(C)ccc3C2=O)c1` ?
Reply: 65.2

###

# Tested on: HOP-62 NSCLC
# assay_details: NCI-60 one-dose screen, 48 h (100 = growth as untreated, 0 = no growth, -100 = all killed)
# condition_parameters: 10 µM unless noted
Compounds without any hit were thinned out: in the full panel of roughly 83,000, 20% have a hit.
Recorded growth for the following compounds
Could you give me the number in %? Just the number is fine.

Example cases with answers are listed next.
- compound: "NCCNC(=O)c1cccc(COc2ccccc2NC(=O)c2cc(Cl)c(Cl)[nH]2)c1"
  subject_of_test: "HOP-62 NSCLC"
  experimental_result: 104
- compound: "CNC(=O)Nc1ccc(Nc2cc(-c3ccc(-n4cccn4)cc3)[nH]n2)c(C)c1"
  subject_of_test: "HOP-62 NSCLC"
  experimental_result: 106
- compound: "O=S(=O)(Oc1ccc(-c2cn3ccsc3n2)cc1)c1cccc(C(F)(F)F)c1"
  subject_of_test: "HOP-62 NSCLC"
  experimental_result: 110

Ask: Could you share which growth value was measured for `N#Cc1c(-c2cccs2)cc(-c2cnccn2)nc1SCC(=O)N/N=C/c1ccc(Cl)cc1` ?
Reply: 99.1

Ask: Could you share which growth value was measured for `COc1ccc(Cn2cc(C#N)c(N)c2C(C)=O)cc1` ?
Reply: 104

Ask: Could you share which growth value was measured for CCCCN1C(=O)/C(=c2\sc3n(c2=O)C2C(NN=3)N(CC)C(=O)N2CC)c2cccc(C)c21 (configuration not stated) ?
Reply: 46.8

Ask: Could you share which growth value was measured for Cc1[nH]c(C(=O)Nc2ccccc2OCc2cccc(C(=O)NC3CCCNC3)c2)c(Cl)c1Cl (configuration not stated) ?
Reply: -42.2

Ask: Could you share which growth value was measured for `Cc1ccc(NC(=O)/C=C/c2ccc(OCCCOc3ccc4c(C)cc(=O)oc4c3)cc2)cc1` ?
Reply: 48.5

Ask: Could you share which growth value was measured for `O=c1[nH][nH]c(-c2ccc(F)cc2)c1-c1nc2ccccc2s1` ?
Reply: 89.4

Ask: Could you share which growth value was measured for CCC1=Cc2c(OC)cccc2OC12C=Cc1c(OC)cccc1O2 (configuration not stated) ?
Reply: 43.2

Ask: Could you share which growth value was measured for `Cc1ccc2c(n1)C(=O)C(Cl)=C(Nc1ccc(C(F)(F)F)cc1)C2=O` ?
Reply: 97.2
